Where these numbers come from: patent US20230235040A1

Target: T1, hu-IL-36γ (human IL-36γ, N-terminally truncated active form S18-D169) (human, UniProt Q9NZH8 18-169)
T1 construct: Purification tag cleaved off; Biotinylated where captured; also called hu-IL-36g
T1 sequence: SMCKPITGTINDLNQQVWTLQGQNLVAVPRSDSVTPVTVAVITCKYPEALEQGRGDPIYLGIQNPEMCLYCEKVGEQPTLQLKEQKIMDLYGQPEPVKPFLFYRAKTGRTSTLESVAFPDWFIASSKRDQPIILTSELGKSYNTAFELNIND
Assay: SPR (Biacore 8K), biotinylated hu-IL-36 captured on CAP chip, Fab injected, 37°C
# reported pKd; entries follow
The read-out pKd is expressed as -log10 of concentration in moles per litre.

// solved cases for pKd follow
BINDER	pKd
mAb2.11 Fab (Fab, V domains shown, Recombinant Fab with 8xHis tag (Expi293F)) VH: ELQLQESGPGLVKPSETLSLTCTVSGGSISESSYYWGWIRQPPGKGLEWIGSIYYTGETYYAPSLKSRVTISVDTSKNQFSLKLSSVTAADTAVYYCARLRYGVGVPRYFDPWGQGTLVTVSS VL: ESVLTQPPSVSGAPGQRVTISCTGSSSNIGAHYDVHWYQQLPGTAPKLLIYGNDNRPSGVPDRFSGSKSGTSASLAITGLQAEDEADYYCQSYDYSLSGYVFGGGTKLTVL	9.96
mAb2.8 Fab (Fab, V domains shown, Recombinant Fab with 8xHis tag (Expi293F)) VH: ELQLQESGPGLVKPSETLSLTCTVSGGSISDSSYYWGWIRQPPGKGLEWIGSIYYTGETYYAPSLKSRVTISVDTSKNQFSLKLSSVTAADTAVYYCARLRYGVGVPRYFDPWGQGTLVTVSS VL: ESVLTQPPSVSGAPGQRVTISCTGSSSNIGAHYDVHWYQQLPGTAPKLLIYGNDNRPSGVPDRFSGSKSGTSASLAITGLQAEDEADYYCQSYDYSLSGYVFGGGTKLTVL	9.77
mAb2.9 Fab (Fab, V domains shown, Recombinant Fab with 8xHis tag (Expi293F)) VH: ELQLQESGPGLVKPSETLSLTCTVSGGSISDSSYYWGWIRQPPGKGLEWIGSIYYTGETYYAPSLKSRVTISVDTSKNQFSLKLSSVTAADTAVYYCARVKYGVGVPRYFDPWGQGTLVTVSS VL: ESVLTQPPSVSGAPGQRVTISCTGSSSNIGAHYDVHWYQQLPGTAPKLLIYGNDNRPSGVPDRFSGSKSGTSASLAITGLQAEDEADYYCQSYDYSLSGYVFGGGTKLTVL	9.62
mAb2.12 Fab (Fab, V domains shown, Recombinant Fab with 8xHis tag (Expi293F)) VH: ELQLQESGPGLVKPSETLSLTCTVSGGSISESSYYWGWIRQPPGKGLEWIGSIYYTGETYYAPSLKSRVTISVDTSKNQFSLKLSSVTAADTAVYYCARVKYGVGVPRYFDPWGQGTLVTVSS VL: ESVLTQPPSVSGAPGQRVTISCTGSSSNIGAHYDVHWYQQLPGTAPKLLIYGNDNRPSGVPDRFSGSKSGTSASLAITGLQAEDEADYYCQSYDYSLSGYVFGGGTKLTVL	9.55

Turning to the following binder.
(Q) Could you please provide reported pKd for mAb2.10 Fab (Fab, V domains shown, Recombinant Fab with 8xHis tag (Expi293F)) VH: ELQLQESGPGLVKPSETLSLTCTVSGGSISDSSYYWGWIRQPPGKGLEWIGSIYYTGETYYAPSLKSRVTISVDTSKNQFSLKLSSVTAADTAVYYCARVRYGVGVPRHFDPWGQGTLVTVSS VL: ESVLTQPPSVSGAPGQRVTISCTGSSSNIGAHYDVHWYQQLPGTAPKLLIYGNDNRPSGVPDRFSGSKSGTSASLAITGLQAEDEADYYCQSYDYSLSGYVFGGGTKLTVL ? Thanks!
(A) 9.89
